All figures here come from the supplement of paper PMC9694430.

Please respond with reported thermal shift delta Tm for every item in the list.
test system: LOC_OS01G13800-cb001; experiment: thermal shift delta Tm vs DMSO control; higher = stronger stabilization (binding); conditions: 12.5 µM; protein concentration 2 µM;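 also: purified Escherichia coli-expressed rice kinase domain construct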
Quick reminder: number only, in °C, skip the unit.

Query :: Requested read-out: thermal shift delta Tm. Entry: CCOc1ccn(-c2ccc(F)cc2)c(=O)c1C(=O)Nc1ccc(Oc2ccnc(N)c2Cl)c(F)c1
Result :: 0.21

Query :: Given CO[C@H]1C[C@@H]2CC[C@@H](C)[C@@](O)(O2)C(=O)C(=O)N2CCCC[C@H]2C(=O)O[C@H]([C@H](C)C[C@@H]2CC[C@@H](O)[C@H](OC)C2)CC(=O)[C@H](C)/C=C(\C)[C@@H](O)[C@@H](OC)C(=O)[C@H](C)C[C@H](C)/C=C/C=C/C=C/1C [Rapamycin (Sirolimus)] , state its recorded thermal shift delta Tm.
Result :: -0.01

Query :: Record request: thermal shift delta Tm value, item CCn1c(-c2nonc2N)nc2cnc(Oc3cccc(NC(=O)c4ccc(OCCN5CCOCC5)cc4)c3)cc21
Result :: 0.89

Query :: Can you share its thermal shift delta Tm? I mean this compound: CNC(=O)c1ccccc1Sc1ccc2c(/C=C/c3ccccn3)n[nH]c2c1
Result :: -0.18

* * *

test system: LOC_OS01G10900-cb004; experiment: thermal shift delta Tm vs DMSO control; higher = stronger stabilization (binding); details: 12.5 µM; protein concentration 2 µM
For each record, write down the corresponding thermal shift delta Tm.
Your answer is read as °C, so omit the unit and give the number.

Query :: May I ask what thermal shift delta Tm has been recorded for CCNc1nc(Nc2cc(F)c(C(=O)N3CCOCC3)cc2OC)ncc1C(F)(F)F ?
Result :: 0.25

Query :: Fill in: thermal shift delta Tm of C#Cc1cccc(Nc2ncnc3cc(OCCOC)c(OCCO)cc23)c1 is ___
Result :: 1.08

Query :: Which thermal shift delta Tm is listed for CCc1cccc(CC)c1NC(=O)N1Cc2[nH]nc(NC(=O)c3ccc(N4CCN(C)CC4)cc3)c2C1 ?
Result :: 0.87

Query :: Can you look up the measured thermal shift delta Tm of COc1cc2c(Oc3ccc(NC(=O)C4(C(=O)Nc5ccc(F)cc5)CC4)cc3F)ccnc2cc1OCCCN1CCOCC1 for me?
Result :: 1.69

* * *

system: LOC_OS02G54510-cb004; assay: thermal shift delta Tm vs DMSO control; higher = stronger stabilization (binding); settings: 12.5 µM; protein concentration 2 µM
Give fulfilled when the value for thermal shift delta Tm is at least 0.2 °C. Give not fulfilled when it is less.

Query :: Determine whether this molecule has thermal shift delta Tm no lower than 0.2 °C: Cn1c2ccccc2c2c3c(c4c5ccccc5n(CCC#N)c4c21)CNC3=O
Result :: fulfilled

Query :: Is the recorded value of thermal shift delta Tm equal to or greater than 0.2 °C for this molecule? Nc1ccc(-c2ccc3ncc4ccc(=O)n(-c5cccc(C(F)(F)F)c5)c4c3c2)cn1
Result :: not fulfilled

Query :: Check this molecule for thermal shift delta Tm at or above 0.2 °C: CC(C)(CCCCCC(O)CCCCCC(C)(C)C(=O)O)C(=O)O
Result :: fulfilled

Query :: Decide: thermal shift delta Tm of CC#CC(=O)N1CCC[C@H]1c1nc(-c2ccc(C(=O)Nc3ccccn3)cc2)c2c(N)nccn12 >= 0.2 °C?
Result :: fulfilled

Query :: hey, is thermal shift delta Tm for this one >= 0.2 °C? CCOc1cc2ncc(C#N)c(Nc3ccc(F)c(Cl)c3)c2cc1NC(=O)/C=C/CN(C)C [Pelitinib (EKB-569)]
Result :: fulfilled

Query :: Hello, I need to know if OCCn1cc(-c2ccc3c(c2)CC/C3=N\O)c(-c2ccncc2)n1 has measured thermal shift delta Tm not below 0.2 °C. Thanks!
Result :: not fulfilled

Query :: Form field: thermal shift delta Tm at least 0.2 °C? Entry: Nc1[nH]nc2nnc(-c3c(-c4ccccc4)nn4ccccc34)cc12
Result :: fulfilled

Query :: Decide: is the reported value of thermal shift delta Tm for CCCNC(=O)Nc1ccc(Oc2ncnc3cc(OC)c(OC)cc23)cc1Cl equal to or greater than 0.2 °C?
Result :: not fulfilled

Query :: Please tell me: is the molecule Cc1cc(CS(=O)(=O)c2ccccc2)cc(OCc2ccc(CN3CCC[C@@H]3CO)cc2)c1 at or over 0.2 °C in terms of thermal shift delta Tm?
Result :: not fulfilled
